experiment: tissue concentrations after intraperitoneal injection into a live rat; type: in vivo; settings: myocardium, ip, 6 mg i.p., 45 min, read-out: Concentration of compound 188 in tissue samples (μM) myocardium

| compound | concentration at 45 min |
| --- | --- |
| O=C1c2ccsc2N=C2N(c3ccc(N4CCOCC4)cc3)CCC12O (stereo not shown) [Compound 188] | 18 µM |

###

target: recombinant human non-muscle myosin 2 NM2C (Homo sapiens); test: actomyosin steady state ATPase measurement, NM2C; format: biochemical; conditions: read-out: % inhibition at 5 μM (or 10 μM if racemate) NM2C; 5 μM (10 μM if racemate); ATPase activity
Sequence (Q7Z406 whole entry): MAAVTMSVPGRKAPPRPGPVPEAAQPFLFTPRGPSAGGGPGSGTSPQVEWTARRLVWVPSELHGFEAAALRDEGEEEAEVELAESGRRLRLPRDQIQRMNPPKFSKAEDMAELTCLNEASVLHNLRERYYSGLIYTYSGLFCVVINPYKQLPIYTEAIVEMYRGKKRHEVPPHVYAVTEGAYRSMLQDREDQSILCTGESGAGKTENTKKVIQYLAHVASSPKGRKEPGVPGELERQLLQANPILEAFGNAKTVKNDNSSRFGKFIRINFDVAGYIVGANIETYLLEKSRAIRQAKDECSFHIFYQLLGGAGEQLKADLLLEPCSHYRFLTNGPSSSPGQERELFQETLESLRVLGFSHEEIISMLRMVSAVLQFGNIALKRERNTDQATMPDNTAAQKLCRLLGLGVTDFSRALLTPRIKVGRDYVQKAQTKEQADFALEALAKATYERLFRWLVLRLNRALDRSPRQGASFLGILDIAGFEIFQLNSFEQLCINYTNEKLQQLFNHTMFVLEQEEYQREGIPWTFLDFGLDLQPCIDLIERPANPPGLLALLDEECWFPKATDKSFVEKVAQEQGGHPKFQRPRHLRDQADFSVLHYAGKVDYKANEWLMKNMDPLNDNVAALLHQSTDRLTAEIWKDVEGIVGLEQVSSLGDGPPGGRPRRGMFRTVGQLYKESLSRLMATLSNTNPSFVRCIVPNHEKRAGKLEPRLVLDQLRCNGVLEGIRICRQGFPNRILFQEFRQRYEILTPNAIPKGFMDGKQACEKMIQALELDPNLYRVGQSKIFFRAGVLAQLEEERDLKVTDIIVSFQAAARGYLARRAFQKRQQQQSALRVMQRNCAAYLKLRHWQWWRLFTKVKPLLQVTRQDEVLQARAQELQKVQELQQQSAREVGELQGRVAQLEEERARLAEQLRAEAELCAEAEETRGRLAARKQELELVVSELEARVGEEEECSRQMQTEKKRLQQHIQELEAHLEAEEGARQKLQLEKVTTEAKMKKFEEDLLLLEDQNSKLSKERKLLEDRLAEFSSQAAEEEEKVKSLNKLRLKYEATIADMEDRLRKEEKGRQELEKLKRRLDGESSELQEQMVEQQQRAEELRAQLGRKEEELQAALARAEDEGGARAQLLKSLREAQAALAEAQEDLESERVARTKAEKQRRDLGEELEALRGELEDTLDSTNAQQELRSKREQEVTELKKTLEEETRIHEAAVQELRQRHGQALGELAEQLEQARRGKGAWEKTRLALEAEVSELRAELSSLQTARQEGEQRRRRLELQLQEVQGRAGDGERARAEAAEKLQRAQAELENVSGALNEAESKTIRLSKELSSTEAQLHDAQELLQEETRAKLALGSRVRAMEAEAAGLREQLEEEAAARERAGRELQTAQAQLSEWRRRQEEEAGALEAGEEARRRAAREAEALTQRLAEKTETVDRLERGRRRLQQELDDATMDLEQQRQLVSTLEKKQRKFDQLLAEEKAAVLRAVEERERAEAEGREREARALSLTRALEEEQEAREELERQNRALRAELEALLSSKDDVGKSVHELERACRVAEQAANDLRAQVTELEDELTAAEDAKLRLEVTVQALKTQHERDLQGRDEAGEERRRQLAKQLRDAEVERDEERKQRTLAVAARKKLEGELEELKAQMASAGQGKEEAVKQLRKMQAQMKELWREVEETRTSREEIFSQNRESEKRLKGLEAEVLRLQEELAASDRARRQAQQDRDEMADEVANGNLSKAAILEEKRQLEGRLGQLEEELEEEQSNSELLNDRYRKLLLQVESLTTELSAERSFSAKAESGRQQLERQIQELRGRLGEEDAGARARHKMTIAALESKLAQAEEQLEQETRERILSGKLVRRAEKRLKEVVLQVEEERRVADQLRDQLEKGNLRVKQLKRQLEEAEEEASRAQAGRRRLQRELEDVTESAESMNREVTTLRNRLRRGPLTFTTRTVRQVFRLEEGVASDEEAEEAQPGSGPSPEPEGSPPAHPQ
I would appreciate it if you labelled entries Satisfied when inhibition at 5 µM is 30% or higher, otherwise Not satisfied.

| compound | category |
| --- | --- |
| COc1ccc(N2CC[C@@]3(O)C(=O)c4ccsc4N=C23)cc1 [Compound 211] | Satisfied |
| COc1ccc(N2CC[C@@]3(O)C(=O)c4ccsc4N=C23)cn1 [Compound 219] | Not satisfied |
| Nc1ccc(N2CC[C@@]3(O)C(=O)c4ccsc4N=C23)cc1 [Compound 210] | Not satisfied |
| COc1ccc(N2CCC3(O)C(=O)c4cc(C)sc4N=C23)cn1 (centres unmarked) [Compound 230] | Satisfied |
| Cc1cc2c(s1)N=C1N(c3ccc(N)cc3)CCC1(O)C2=O (centres unmarked) [Compound 221] | Satisfied |

###

Parameter: % inhibition at 5 μM (or 10 μM if racemate) Skeletal. Scope: all listed entries.
system: isolated rabbit skeletal muscle myosin (skeletal); assay: actomyosin steady state ATPase measurement, skeletal muscle myosin; type: biochemical; details: 5 μM (10 μM if racemate); ATPase activity
parameter measured: % inhibition at 5 μM (or 10 μM if racemate) Skeletal (%)

| compound | endpoint result |
| --- | --- |
| Cc1nsc2c1C(=O)C1(O)CCN(c3ccccc3)C1=N2 (centres unmarked) [Compound 206] | 26 |
| O=C1c2ccsc2N=C2N(c3ccc(OC(F)(F)F)cc3)CC[C@@]12O [Compound 212] | 94 |
| Cc1cc2c(s1)N=C1N(c3ccc(N4CCOCC4)cc3)CCC1(O)C2=O (centres unmarked) [Compound 220] | 86 |
| O=C1c2ccncc2N=C2N(c3ccc(N4CCOCC4)cc3)CCC12O (centres unmarked) [Compound 248] | 21 |
| COc1ccc(N2CC[C@@]3(O)C(=O)c4ccsc4N=C23)cn1 [Compound 219] | 69 |

###

molecular target: isolated smooth muscle myosin (UniProt P10587); type: biochemical, chamois; settings: 50 μM (100 μM if racemate); ATPase activity
Sequence (P10587 whole entry): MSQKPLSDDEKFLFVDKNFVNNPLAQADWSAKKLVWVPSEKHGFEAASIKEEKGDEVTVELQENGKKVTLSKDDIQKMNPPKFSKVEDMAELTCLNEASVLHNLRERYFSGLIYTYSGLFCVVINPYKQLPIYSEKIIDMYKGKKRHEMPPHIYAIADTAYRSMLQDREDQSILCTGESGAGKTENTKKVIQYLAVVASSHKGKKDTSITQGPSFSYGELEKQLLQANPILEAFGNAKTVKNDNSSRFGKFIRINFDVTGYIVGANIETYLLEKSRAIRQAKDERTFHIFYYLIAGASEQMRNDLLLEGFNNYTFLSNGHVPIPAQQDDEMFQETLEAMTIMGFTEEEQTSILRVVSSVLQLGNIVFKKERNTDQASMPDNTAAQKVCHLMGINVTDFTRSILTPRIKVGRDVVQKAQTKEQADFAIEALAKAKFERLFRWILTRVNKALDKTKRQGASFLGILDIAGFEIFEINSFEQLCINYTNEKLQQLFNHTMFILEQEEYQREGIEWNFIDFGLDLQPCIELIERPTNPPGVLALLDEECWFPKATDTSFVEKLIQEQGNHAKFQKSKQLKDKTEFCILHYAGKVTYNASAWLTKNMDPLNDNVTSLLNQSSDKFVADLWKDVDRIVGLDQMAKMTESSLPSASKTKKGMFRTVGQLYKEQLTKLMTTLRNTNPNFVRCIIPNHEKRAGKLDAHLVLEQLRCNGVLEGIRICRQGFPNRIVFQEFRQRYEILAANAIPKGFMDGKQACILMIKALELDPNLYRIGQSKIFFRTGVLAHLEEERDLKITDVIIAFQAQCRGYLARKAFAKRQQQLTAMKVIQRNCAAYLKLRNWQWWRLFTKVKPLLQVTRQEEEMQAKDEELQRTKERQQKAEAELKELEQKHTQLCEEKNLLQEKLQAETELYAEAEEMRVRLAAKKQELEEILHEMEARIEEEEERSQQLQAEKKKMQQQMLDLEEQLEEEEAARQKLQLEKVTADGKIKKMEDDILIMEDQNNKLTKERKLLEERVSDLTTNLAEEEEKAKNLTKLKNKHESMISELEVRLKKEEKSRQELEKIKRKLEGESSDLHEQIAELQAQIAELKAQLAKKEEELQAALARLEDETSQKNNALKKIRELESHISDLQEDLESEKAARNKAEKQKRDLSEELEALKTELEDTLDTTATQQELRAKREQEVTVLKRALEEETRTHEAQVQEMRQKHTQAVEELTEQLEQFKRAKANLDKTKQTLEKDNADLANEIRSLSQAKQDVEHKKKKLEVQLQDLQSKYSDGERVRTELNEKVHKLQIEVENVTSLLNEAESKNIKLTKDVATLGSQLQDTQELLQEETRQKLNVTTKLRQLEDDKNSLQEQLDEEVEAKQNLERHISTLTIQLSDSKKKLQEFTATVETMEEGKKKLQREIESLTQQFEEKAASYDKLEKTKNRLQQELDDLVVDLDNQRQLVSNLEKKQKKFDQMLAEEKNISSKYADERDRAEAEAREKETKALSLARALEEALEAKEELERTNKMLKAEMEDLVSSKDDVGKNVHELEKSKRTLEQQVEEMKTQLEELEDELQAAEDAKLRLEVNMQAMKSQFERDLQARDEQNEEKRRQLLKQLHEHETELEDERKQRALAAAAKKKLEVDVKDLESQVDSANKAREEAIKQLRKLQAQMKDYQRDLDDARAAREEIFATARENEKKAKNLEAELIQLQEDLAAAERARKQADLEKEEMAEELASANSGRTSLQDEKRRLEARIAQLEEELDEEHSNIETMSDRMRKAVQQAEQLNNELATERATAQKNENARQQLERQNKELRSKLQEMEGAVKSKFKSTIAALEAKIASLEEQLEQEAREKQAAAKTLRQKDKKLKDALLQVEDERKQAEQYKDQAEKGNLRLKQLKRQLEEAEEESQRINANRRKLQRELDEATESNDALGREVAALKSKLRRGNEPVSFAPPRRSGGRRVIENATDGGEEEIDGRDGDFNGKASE
Assign 1.0 whenever % inhibition at 50 μM (or 100 μM if racemate) Smooth does not fall below 50%; assign 0.0 whenever it does.

| compound | category |
| --- | --- |
| O=C1c2ccncc2N=C2N(c3ccccc3)CCC12O (stereo not shown) [Compound 174] | 0.0 |
| O=C1c2ccsc2N=C2N(c3cccs3)CC[C@@]12O [Compound 218] | 0.0 |
| O=C1c2ccncc2N=C2NCCC12O (stereo not shown) [Compound 255] | 0.0 |
| COc1ccc(N2CCC3(O)C(=O)c4cc(C)sc4N=C23)cn1 (stereo not shown) [Compound 230] | 1.0 |
| Cc1cc2c(s1)N=C1N(c3ccc(N)cc3)CCC1(O)C2=O (stereo not shown) [Compound 221] | 1.0 |
| Cc1cc2c(s1)N=C1N(c3ccc(CC#N)cc3)CCC1(O)C2=O (stereo not shown) [Compound 226] | 1.0 |
| COc1ccc(N2CC[C@@]3(O)C(=O)c4ccsc4N=C23)cn1 [Compound 219] | 0.0 |
| CC(=O)c1ccc(N2CCC3(O)C(=O)c4ccncc4N=C23)cc1 (stereo not shown) [Compound 240] | 0.0 |
| N#Cc1ccc(N2CC[C@@]3(O)C(=O)c4ccsc4N=C23)cc1 [Compound 213] | 1.0 |
